Test system: Mus musculus
Experiment: Antinociceptive activity in Swiss mouse assessed as inhibition of acetic-acid induced writhing at 70 mg/kg, po after 30 mins by Koster test relative to indomethacin
Format: functional
Recorded Activity for the following compounds

// solved cases for Activity follow
Compound structure | Test value
N#C/C(C(=O)c1c[nH]c2ccccc12)=C(\S)Nc1ccccc1 | 0.79 ratio to indomethacin
CC(=O)C1=NN(c2ccc(Cl)cc2)/C(=C(\C#N)C(=O)c2c[nH]c3ccccc23)S1 | 0.57 ratio to indomethacin
N#C/C(=N\Nc1cc(-c2ccccc2)n[nH]1)C(=O)c1c[nH]c2ccccc12 | 0.77 ratio to indomethacin
CCOC(=O)C1=NN(c2ccccc2)/C(=C(\C#N)C(=O)c2c[nH]c3ccccc23)S1 | 0.76 ratio to indomethacin
CC(=O)c1sc(Nc2ccccc2)c(C#N)c1-c1c[nH]c2ccccc12 | 0.85 ratio to indomethacin

Entry `CCOC(=O)C1=NN(c2ccc(C)cc2)/C(=C(\C#N)C(=O)c2c[nH]c3ccccc23)S1` ; Activity = 0.96 ratio to indomethacin

Entry `N#C/C(C(=O)c1c[nH]c2ccccc12)=C1/SCC(=O)N1c1ccccc1` ; Activity = 0.75 ratio to indomethacin

----------
System: Mus musculus
Assay: Effect on thermal pain in Swiss mouse at 70 mg/kg, po after 1 hr by hot plate test relative to indomethacin
Type: functional
Parameters: unit not given here
Recorded Activity for the following compounds
Number only, please.

// solved cases for Activity follow
Compound structure | Activity
CC(=O)C1=NN(c2ccc(Cl)cc2)/C(=C(\C#N)C(=O)c2c[nH]c3ccccc23)S1 | 3.1
N#C/C(=N\Nc1nc2ccccc2[nH]1)C(=O)c1c[nH]c2ccccc12 | 0.4
N#C/C(C(=O)c1c[nH]c2ccccc12)=C1/SC(c2ccccc2)=NN1c1ccccc1 | 1.2
CC(=O)c1sc(Nc2ccccc2)c(C#N)c1-c1c[nH]c2ccccc12 | 0.5
N#C/C(C(=O)c1c[nH]c2ccccc12)=C(\S)Nc1ccccc1 | 1.1

Now for the compound whose Activity we want.
Entry `CCOC(=O)C1=NN(c2ccc(Cl)cc2)/C(=C(\C#N)C(=O)c2c[nH]c3ccccc23)S1` ; Activity = 0.4

----------
Recorded Activity for the following compounds
Tested on: Mus musculus
Experiment: Antinociceptive activity in Swiss mouse assessed as inhibition of acetic-acid induced writhing at 70 mg/kg, po after 30 mins by Koster test relative to indomethacin
Assay type: functional

// solved cases for Activity follow
Compound structure | Activity
N#C/C(C(=O)c1c[nH]c2ccccc12)=C1/SC(c2ccccc2)=NN1c1ccccc1 | 0.4 ratio to indomethacin
CC(=O)C1=NN(c2ccccc2)/C(=C(\C#N)C(=O)c2c[nH]c3ccccc23)S1 | 0.88 ratio to indomethacin
CC(=O)C1=NN(c2ccc(C)cc2)/C(=C(\C#N)C(=O)c2c[nH]c3ccccc23)S1 | 0.7 ratio to indomethacin
N#C/C(=N\Nc1nc2ccccc2[nH]1)C(=O)c1c[nH]c2ccccc12 | 0.78 ratio to indomethacin

So the reported Activity for `CCOC(=O)C1=NN(c2ccc(Cl)cc2)/C(=C(\C#N)C(=O)c2c[nH]c3ccccc23)S1` , on Mus musculus, turned out to be 0.9 ratio to indomethacin
